test_name: NFAT Signaling Pathway (AID 444);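 note: carbachol stimulus at about its EC50 of 1 µM final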
test_conditions: Jurkat NFAT-bla M1, carbachol, beta-lactamase ratio, 5 h; at 7.69 µM (top of the series) unless noted
Results filed as inconclusive are left out. The source made the active and inactive calls. Calls come from the whole dose curve; as a rule, active = well fitted curve in either direction with a large enough effect (not every such curve was filed as active); inconclusive = small, poorly fitted or top-dose-only effect, or another doubt; inactive = flat fitted curve, though single readings scatter.
Outcome (select one): active, inactive

Look over these answered cases.
> print(dat)
                                   molecule  classification
1         O=C(O)c1nc(-c2ccccc2)[nH]c1C(=O)O        inactive
2  Nc1ccc(N=Nc2c(S(=O)(=O)O)cc3ccccc3c2S(=O)(=O)O)cc1        inactive
3  Nc1cc2c(nc3c4ccccc4c(N)cc3[n+]2-c2cccc3ccccc23)c2ccccc12 (tested in a mixture with another compound)        inactive
4  CCC[C@@H]1O[C@@H]2C[C@@H]3[C@@H]4CCC5=CC(=O)C=C[C@@]5(C)[C@H]4[C@H](O)C[C@@]3(C)[C@@]2(C(=O)CO)O1        inactive
5                  CC(C)=NNc1ncnc2nc[nH]c12        inactive

Identify the outcome logged in this assay for the molecule shown: `O=C(O)CN(CCN(CC(=O)O)CC(=O)O)CC(=O)O.[Cu]`
inactive

====

test_name: Cell Viability - LYMP2-017 (AID 972);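 note: cells exposed to compound for 24 hours at 37 °C; nearly all actives have a fitted effect of over 55% in size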
test_conditions: LYMP2-017 lymphoblastoid cell viability; series mostly up to 92.2 µM
Results filed as inconclusive are left out. Calls of active or inactive are those of the source. Calls come from the whole dose curve; as a rule, active = well fitted cell-killing curve with a large enough effect; inconclusive = small, poorly fitted or top-dose-only effect; inactive = flat fitted curve, though single readings scatter.
Outcome (select one): 1 = active, -1 = inactive

> print(dat)
                 molecule  classification
1  c1ccc(SCCSc2ccccc2)cc1              -1

Identify the outcome logged in this assay for the molecule shown: `CCCCCCCC/C=C\CCCCCCCC(=O)N(CCO)CCO`
-1

Repeat for the following molecule: `CC1=C(/C=C/C(C)=C/C=C/C(C)=C/C=O)C(C)(C)CCC1`
1

Repeat for the following molecule: `COc1ccc([N+](=O)[O-])cc1N`
-1

Repeat for the following molecule: CCCCC(CC)COCCCN (stereo not given)
-1

Repeat for the following molecule: `c1cc2c3c(c1)ccc1cccc(c13)C2`
-1

====

assayed_system: Cytochrome P450 1A2 (Homo sapiens)
test_name: p450-cyp1a2 (AID 410)
test_conditions: recombinant CYP1A2, luciferin-ME demethylation, luminescence; series mostly up to 11.4 µM
Results filed as inconclusive are left out. Calls of active or inactive are those of the source. Calls come from the whole dose curve.
Outcome (select one): 1 (yes) (active), 0 (no) (inactive)

Look over these answered cases.
> print(dat)
                                    compound  classification
 1  S=C(Nc1ccc2c(c1)Cc1ccccc1-2)Nc1ccc2c(c1)Cc1ccccc1-2         1 (yes)
 2      O=C(O)c1cc(N=Cc2ccccc2O)cc(C(=O)O)c1          0 (no)
 3           C[N+](C)(C)CCCSc1nc2ccccc2[nH]1          0 (no)
 4  Cc1ccc([C@@]2(C)CC/C(=N/N=C3\CC[C@](C)(c4ccc(C)c(C)c4)c4cc(C)c(C)cc43)c3cc(C)c(C)cc32)cc1C          0 (no)
 5  O=S(=O)(O)c1ccc(O)c2ncccc12.O=S(=O)(O)c1ccc(O)c2ncccc12.[Zn]         1 (yes)
 6     NC(N)=Nc1nc2ccc([N+](=O)[O-])cc2[nH]1         1 (yes)
 7      CCNc1ncc2nc(CCc3ccccc3)c(=O)n(C)c2n1         1 (yes)
 8             CS(=O)(=O)N(CC(=O)O)Cc1ccccc1          0 (no)
 9              Cn1ccnc1C[C@@](C)(O)c1ccccc1          0 (no)
10   O=c1cnc2cnc(Oc3ccccc3)nc2n1Cc1ccc(F)cc1         1 (yes)

Identify the outcome logged in this assay for the compound shown: `COCCn1c(=O)c(-c2ccc(OC)cc2)nc2cnc(OC)nc21`
1 (yes)

Repeat for the following compound: `[O-][N+](CCO)(CCO)c1ncnc2nc[nH]c12`
0 (no)

Repeat for the following compound: Cc1ccc(C(=O)O[C@@H](C(=O)O)[C@@H](OC(=O)c2ccc(C)cc2)C(=O)O)cc1 (tested in a mixture with another compound)
0 (no)

Repeat for the following compound: `NC(=O)c1ncn([C@@H]2O[C@@H](CO)[C@@H](O)[C@H]2O)c1O`
0 (no)

Repeat for the following compound: `Cc1ccccc1CNc1ncnc2c1ncn2[C@@H]1O[C@@H](CO)[C@H](O)[C@@H]1O`
0 (no)

Repeat for the following compound: `C[N@+]1(CCC(=O)c2ccccc2)CC[C@H]2CC[C@H](C2)C1`
0 (no)

Repeat for the following compound: `COc1ncc2nc(-c3cc(F)cc(F)c3)c(=O)n(C[C@H]3CCCO3)c2n1`
1 (yes)

Repeat for the following compound: `Nc1ncnc2c1ncn2C[C@@H](O)C(=O)O`
0 (no)

Repeat for the following compound: `CC1(C)CCC(NC(=O)[C@H](N)CCC(=O)O)CC1`
0 (no)

Repeat for the following compound: `CCN(CC)CC[n+]1ccc2c(C)c3[nH]c4ccc(O)cc4c3c(C)c2c1`
1 (yes)

Repeat for the following compound: `COc1ccc2nc3cc(Cl)ccc3c(Nc3ccc(O)c(CN4CCN(C)CC4)c3)c2c1`
1 (yes)

Repeat for the following compound: `O=S(=O)(O)c1cc(N=[N+]([O-])c2cc(S(=O)(=O)O)c3ccccc3c2)cc2ccccc12`
1 (yes)

Repeat for the following compound: `O=C(O)[C@@H](O)Cc1ccccn1`
0 (no)

Repeat for the following compound: `CN(C(=O)c1ccncc1)c1ccccc1`
0 (no)

Repeat for the following compound: `C[C@@H]1c2ccccc2Cn2cc3c(c21)C(=O)c1cccc(OP(=O)(O)OCc2ccccc2)c1C3=O`
1 (yes)

Repeat for the following compound: `CNC(=O)[C@@H]1O[C@@H](n2cnc3c(NCc4ccc(N)cc4)ncnc32)[C@@H](O)[C@H]1O`
0 (no)

Repeat for the following compound: `Oc1c(Cl)cc(C(c2cc(Cl)c(O)c(Cl)c2)C(c2cc(Cl)c(O)c(Cl)c2)c2cc(Cl)c(O)c(Cl)c2)cc1Cl`
1 (yes)

Repeat for the following compound: `O=C(O)CSc1nc2ccccc2[nH]1`
0 (no)

Repeat for the following compound: `COc1cc([C@H](O)CO)ccc1O`
0 (no)

Repeat for the following compound: `CC(CC(=O)O)(CC(=O)O)c1ccccc1`
0 (no)

Repeat for the following compound: `Cc1ccc(S(=O)(=O)Nc2ccccc2C=O)cc1`
0 (no)
